These entries and their values trace back to patent US20090170867A1.

target: human TRPV1 (Homo sapiens); construct: using primers designed surrounding the complete hTRPV1 open reading frame; expressed in transfected cells; host or cells: CHO-K1 cells stably transfected with pcDNA3.1(-)-hVR1 plasmid; experiment: Capsaicin-based assay, Protocol 2 (TRPV1/CHO cells, Fluo-4, FLIPR); assay type: cell-based; details: capsaicin 100 nM final, mean ± SEM, number of trials in parentheses, read-out: TRPV1 IC50 Potency, Human Capsaicin CHO (hCAP-CHO)
Sequence (Q8NER1 whole entry): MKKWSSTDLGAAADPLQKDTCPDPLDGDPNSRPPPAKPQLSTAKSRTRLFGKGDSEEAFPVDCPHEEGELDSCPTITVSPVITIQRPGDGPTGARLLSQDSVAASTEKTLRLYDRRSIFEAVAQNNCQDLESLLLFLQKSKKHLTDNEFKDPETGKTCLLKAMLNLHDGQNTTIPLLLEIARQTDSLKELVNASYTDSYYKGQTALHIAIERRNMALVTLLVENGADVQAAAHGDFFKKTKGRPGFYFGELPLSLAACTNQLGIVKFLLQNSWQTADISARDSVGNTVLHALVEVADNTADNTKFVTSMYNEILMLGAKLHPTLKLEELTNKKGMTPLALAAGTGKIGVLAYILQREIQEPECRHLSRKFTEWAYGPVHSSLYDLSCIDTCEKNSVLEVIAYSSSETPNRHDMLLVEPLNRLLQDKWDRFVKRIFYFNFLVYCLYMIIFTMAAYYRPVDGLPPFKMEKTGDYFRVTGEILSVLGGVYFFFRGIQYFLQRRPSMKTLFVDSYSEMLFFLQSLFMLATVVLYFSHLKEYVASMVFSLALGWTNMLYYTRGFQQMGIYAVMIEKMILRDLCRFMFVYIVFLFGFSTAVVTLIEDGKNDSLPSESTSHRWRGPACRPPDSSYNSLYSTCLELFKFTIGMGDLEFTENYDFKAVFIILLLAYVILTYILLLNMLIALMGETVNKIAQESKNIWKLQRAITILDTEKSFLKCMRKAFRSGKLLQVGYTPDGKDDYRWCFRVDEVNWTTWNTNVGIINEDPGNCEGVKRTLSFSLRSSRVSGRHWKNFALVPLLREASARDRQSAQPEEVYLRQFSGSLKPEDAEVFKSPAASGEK
Below is a list of entries, each paired with its recorded pIC50 value.
Reminder that pIC50 is minus the log10 of a molar concentration.

// worked examples, pIC50 included
INSERT INTO results (smiles_entry, endpoint_label, observed) VALUES
  ('O=C(Nc1nc2ccc(Cl)cc2s1)N1CC=C(c2ncc(CO)cc2Cl)CC1', 'pIC50', 6.63),
  ('O=C(Nc1ccc(OCC2CC2)c(C(F)(F)F)c1)N1CC=C(c2ncc(CO)cc2Cl)CC1', 'pIC50', 6.45),
  ('O=C(Nc1ccc(C(F)(F)F)cn1)N1CCC(F)(c2ncc([C@@H](O)CO)cc2F)CC1', 'pIC50', 6.71);

Endpoint output: pIC50 of O=C(Nc1ccc(Cl)c(C(F)(F)F)c1)N1CCN(c2ncc([C@H](O)CO)cc2Cl)CC1 . Value?
7.48

Data request, read-out pIC50, for Cc1cc(NC(=O)N2CC=C(c3ncc([C@H](O)CO)cc3F)CC2)ccc1OC(F)(F)F
7.75
